# assayed-target: LSD1_(172-833), lysine-specific demethylase 1 (human, UniProt O60341-1 172-833)
# assay-procedure: cell-based or functional assay
Bridge positions count the residues as written; N and C are the ends. Square brackets hold non-standard residues; d marks the D form. Ends that are not written are not given here. Lys(N3) = [N-]=[N+]=NCCCC[C@H](N)C(=O)O; Cit = NC(=O)NCCC[C@H](N)C(=O)O; Pra = C#CC[C@H](N)C(=O)O
metric: % inhibition of LSD1 demethylase activity at 100 μM peptide (%)
Give bare numbers, in %.

Some binders with recorded % inhibition of LSD1 demethylase activity at 100 μM peptide:
binder	obs-value
A[Cit]EMQKARKST-NH2 (lactam 3-6) [lactam 33 (Arg2Cit-substituted analogue of peptide 28)]	97
AREMQKA[Cit]KST-NH2 (lactam 3-6) [lactam 34 (Arg8Cit-substituted analogue of peptide 28)]	97

Q: Need % inhibition of LSD1 demethylase activity at 100 μM peptide, item AR[Pra]MQ[Lys(N3)]ARKST-NH2 (triazole 3-6) [triazole 36 (triazole-bridged H3_(1-11) K4M, propargylglycine at 3, azidolysine at 6)]
Ans: 70
